# System name: Endothelial PAS domain-containing protein 1 (Homo sapiens)
# Measurement description: HIF-2a and HIF-1a reporter inhibition panel, dose response, selectivity assay for HIF-2a inhibitor project, cell-based, luminescence (AID 651581)
# Condition description: HIF-2a PANC, run 1
Recorded metric: IC50

INSERT INTO measurements (molecule, reported_measurement) VALUES
  ('O=C(O)c1cccc(NC(=S)NC(=O)c2ccc3ccccc3c2)c1', '< 30 µM'),
  ('O=C(O)c1cccc(C(=O)Nc2cccc(NC(=O)C3CCCO3)c2)c1 (stereo not drawn)', '> 99 µM'),
  ('CC(=O)Nc1ccc(NC(=O)c2oc3cc(C)c(C)cc3c2C)cc1', '> 99 µM');
